- ASSAY SYSTEM: human δ receptors (Homo sapiens, UniProt P41143)
- Construct: expressed in transfected cells; host or cells: human 293S (HEK-293S) cells
- Sequence (P41143 whole entry): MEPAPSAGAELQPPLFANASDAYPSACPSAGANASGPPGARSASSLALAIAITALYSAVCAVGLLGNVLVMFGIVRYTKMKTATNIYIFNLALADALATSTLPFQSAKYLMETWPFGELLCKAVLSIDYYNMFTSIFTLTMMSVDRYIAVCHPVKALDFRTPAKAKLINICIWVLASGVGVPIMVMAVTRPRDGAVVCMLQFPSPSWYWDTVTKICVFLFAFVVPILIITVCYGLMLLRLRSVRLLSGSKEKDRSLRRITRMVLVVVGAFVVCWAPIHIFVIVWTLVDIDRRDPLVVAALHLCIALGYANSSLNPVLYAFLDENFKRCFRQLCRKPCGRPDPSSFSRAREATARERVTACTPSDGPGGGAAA
- ASSAY NAME: Human δ receptor functional assay (GTP[γ]35S binding, HEK-293S cell membranes)
- Type: biochemical
- SETUP CONDITIONS: Table 1; human δ receptors expressed at higher levels; read-out: Human δ EC50 (high)
pEC50: −log10 of the molar value.

- CHEMICAL STRUCTURE: "CCN(CC)C(=O)c1ccc([C@H](c2cccc(NC(=O)OC)c2)N2CCN(Cc3ncc[nH]3)CC2)cc1"
  pEC50: "8.71 to 9.26"

----------
- ASSAY SYSTEM: human κ receptors (Homo sapiens)
- Sequence (P41145 whole entry): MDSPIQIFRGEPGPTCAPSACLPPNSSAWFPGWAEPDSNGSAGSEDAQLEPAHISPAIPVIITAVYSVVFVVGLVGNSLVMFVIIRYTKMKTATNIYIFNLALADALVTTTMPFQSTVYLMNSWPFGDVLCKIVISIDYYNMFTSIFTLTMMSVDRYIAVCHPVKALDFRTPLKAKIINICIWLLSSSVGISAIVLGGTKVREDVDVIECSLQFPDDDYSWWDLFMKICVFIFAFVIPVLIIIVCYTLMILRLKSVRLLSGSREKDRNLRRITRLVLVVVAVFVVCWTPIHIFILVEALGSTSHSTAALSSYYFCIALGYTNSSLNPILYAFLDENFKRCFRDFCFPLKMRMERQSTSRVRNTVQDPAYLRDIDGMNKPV
pIC50: −log10 of the molar value.

- COMPOUND: "CCN(CC)C(=O)c1ccc([C@H](c2cccc(NC(=O)OC)c2)N2CCN(Cc3ncc[nH]3)CC2)cc1 [Compound 11]"
  pIC50: "5.79 to 6.61"

----------
- ASSAY SYSTEM: human δ receptors (Homo sapiens, UniProt P41143)
- Construct: expressed in transfected cells; host or cells: human 293S (HEK-293S) cells
- ASSAY NAME: Binding assay, membranes of human 293S cells expressing cloned human δ receptors
- SETUP CONDITIONS: Table 1; displacement of radioactive δ receptor ligand; read-out: Human δ IC50
pIC50: −log10 of the molar value.
MEASURED PARAMETER: pIC50

- CHEMICAL STRUCTURE: "CCN(CC)C(=O)c1ccc([C@H](c2cccc(NC(=O)OC)c2)N2CCN(Cc3ncc[nH]3)CC2)cc1"
  ASSAY SYSTEM: "human δ receptors (Homo sapiens, UniProt P41143)"
  EXPERIMENTAL VALUE: "9.13 to 9.60"
